Experimental protocol: modulators of CIT2-GFP expression in yeast, confirmation, S. cerevisiae, GFP fusion, cherry picks, mother/daughter gates (AID 2274)
Setup conditions: S. cerevisiae CIT2-GFP strain, flow cytometry, 3 h; at 10 µM; stronger effect = higher value
The source made the active and inactive calls.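 How the source made its calls: active means GFP response above 150% of the DMSO level; inconclusive means fewer than 70 events counted for a yeast strain; inactive means the rest.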
Measured GFP response, % of DMSO, listed per entry.

Sample records with GFP response, % of DMSO:
molecule=O=C1c2cccc3cccc(c23)C(=O)N1c1cccnc1 value_reported="99.7% (inactive)"
molecule="CS(=O)(=O)Nc1ccc(C2=NN(S(C)(=O)=O)C(c3ccccc3)C2)cc1 (stereo not drawn)" value_reported="114% (inactive)"
molecule="CCC(C)(C)n1nnnc1C(c1ccc(O)c(OC)c1)N1CCc2ccccc2C1 (stereo not drawn)" value_reported="108% (inactive)"
molecule="O=C1CC(Sc2nnc(-c3ccccc3)o2)C(=O)N1c1ccccc1 (stereo not drawn)" value_reported="97.8% (inactive)"
molecule=Nc1cccnc1S(=O)(=O)c1ccccc1 value_reported="99.1% (inactive)"

Data request: Kindly indicate its recorded GFP response, % of DMSO. Item: `O=C(Nc1cccc(C(F)(F)F)c1)Oc1ccc(Cl)c2cccnc12`
Data returned: 108% (inactive)

Data request: Kindly indicate its recorded GFP response, % of DMSO. Item: `Cc1cc(NCCCN2CCOCC2)n2nc(C)c(-c3ccc(F)cc3)c2n1`
Data returned: 97.2% (inactive)

Data request: Kindly indicate its recorded GFP response, % of DMSO. Item: COc1ccc(C2=NN(S(C)(=O)=O)C(c3ccc4nccnc4c3)C2)cc1 (stereo not drawn)
Data returned: 92.6% (inactive)
